Molecular target: medaka MTNR1a (Oryzias latipes, UniProt H2LVT7)
Sequence (H2LVT7 1-347): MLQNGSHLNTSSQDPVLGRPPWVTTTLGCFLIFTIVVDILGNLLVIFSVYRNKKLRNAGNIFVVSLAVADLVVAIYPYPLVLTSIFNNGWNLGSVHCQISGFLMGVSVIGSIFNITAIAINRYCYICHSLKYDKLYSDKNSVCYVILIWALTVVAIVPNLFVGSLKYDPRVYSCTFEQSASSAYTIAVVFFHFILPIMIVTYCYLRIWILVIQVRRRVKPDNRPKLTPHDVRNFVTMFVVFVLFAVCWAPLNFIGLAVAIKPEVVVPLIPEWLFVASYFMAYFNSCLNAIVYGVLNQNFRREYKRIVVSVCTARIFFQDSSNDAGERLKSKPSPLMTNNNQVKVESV
Test: cAMP-responsive (CRE-luc) reporter gene assay, agonist mode
Assay type: cell-based
Conditions: stably transfected Hepa-E1 cells, 6.25 × 10^−7 M forskolin, 24 h; NC: not calculable (low activity, curve did not reach maximum); read-out: Potency (M) MTNR1a
Recorded EC50 for the following compounds

Field: example entries. Status: answers known.
- compound: "CC(=O)NCCc1c(Cc2ccccc2)[nH]c2ccccc12 [Luzindole]"
  measurement target: "medaka MTNR1a (Oryzias latipes, UniProt H2LVT7)"
  EC50: "3.3e-07 M"
- compound: "COc1ccc2[nH]c(I)c(CCNC(C)=O)c2c1 [2-Iodo melatonin, 2-Iodomelatonin]"
  measurement target: "medaka MTNR1a (Oryzias latipes, UniProt H2LVT7)"
  EC50: "2.7e-11 M"

Attention now shifts to the item below.
Query: # get_value(readout='EC50', item= CCC(=O)NC1Cc2ccccc2C(c2ccccc2)C1 (stereo not drawn) [4P-PDOT] )
Response: 4.7e-09 M
